Reference source: patent US6897222B2

Target: human DPP-IV (Homo sapiens)
Sequence (P27487 31-766): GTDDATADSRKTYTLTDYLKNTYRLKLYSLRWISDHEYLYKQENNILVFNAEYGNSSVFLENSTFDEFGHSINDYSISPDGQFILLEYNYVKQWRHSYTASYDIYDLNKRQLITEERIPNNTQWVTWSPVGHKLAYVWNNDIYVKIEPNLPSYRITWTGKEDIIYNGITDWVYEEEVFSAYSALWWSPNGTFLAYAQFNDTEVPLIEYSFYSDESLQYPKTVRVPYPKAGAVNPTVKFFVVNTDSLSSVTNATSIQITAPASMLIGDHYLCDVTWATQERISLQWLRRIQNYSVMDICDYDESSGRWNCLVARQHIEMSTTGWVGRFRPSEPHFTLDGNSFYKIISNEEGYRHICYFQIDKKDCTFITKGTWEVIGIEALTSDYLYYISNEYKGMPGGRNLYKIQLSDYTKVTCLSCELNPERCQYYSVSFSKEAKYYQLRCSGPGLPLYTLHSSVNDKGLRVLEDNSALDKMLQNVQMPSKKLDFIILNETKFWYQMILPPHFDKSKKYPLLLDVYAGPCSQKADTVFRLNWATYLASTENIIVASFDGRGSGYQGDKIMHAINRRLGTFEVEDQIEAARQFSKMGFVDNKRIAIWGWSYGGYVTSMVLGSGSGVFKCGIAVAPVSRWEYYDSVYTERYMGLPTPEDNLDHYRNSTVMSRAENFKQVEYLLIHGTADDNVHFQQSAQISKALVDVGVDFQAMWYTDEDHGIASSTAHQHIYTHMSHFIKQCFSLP
Assay: DPP-IV activity assay (fluorogenic or colorimetric), IC50 determination
Details: natural human DPP-IV from plasma pool or recombinant human DPP-IV; substrate 50 μM (fluorogenic) or 200 μM (colorimetric); 37° C., pH 7.8
Description: Activity of DPP-IV inhibitors are tested with natural human DPP-IV derived from a human plasma pool or with recombinant human DPP-IV. […] Initial rate constants are calculated by best fit linear regression. […] Kinetic parameters of the enzyme reaction are calculated at at least 5 different substrate concentrations and at least 5 different test compound concentrations.
VALUE_TYPE: pIC50
// pIC50 here means minus log10 of the molar concentration (mol/L)

Some compounds with known pIC50 results, for comparison:
CCCC[C@@H]1CN2CCc3cc(O)c(OC)cc3[C@H]2C[C@H]1N (racemic) [Example 39]; 6.21
CCCCC1CN2C(CC1N)c1cc(OC)c(OC)cc1C1CCCCC12 (mixture of isomers) [Example 17]; 6.85
CCCCC1CN2CCc3cc(O)c(OC)cc3C2CC1N (racemic) [Example 43b]; 6.47
CCCCC1CN2C(CC1N)c1cc(OC)c(OC)cc1C1CCCCC12 (racemic) [Example 36]; 6.80

Consider now this further compound.
Give human DPP-IV (Homo sapiens) pIC50 for COc1cc2c(cc1OC)C1CC(N)C(CCC(C)C)CN1CC2 (racemic) [Example 5]
6.24
